Species: Rattus norvegicus
Assay: Open TG-GATES - Regimen: Single
Type: toxicity, organism-based, Sprague-Dawley
Parameters: regimen Single, gender Male, age 6 weeks
Conditions: in vivo, po, 100 mg/kg, 6 h, tissue Blood, route gavage, dose level Low

Compound	WBC, x10_2/uL
O=C(OC[C@H]1O[C@@H](OC(=O)c2cc(O)c(O)c(OC(=O)c3cc(O)c(O)c(O)c3)c2)[C@H](OC(=O)c2cc(O)c(O)c(OC(=O)c3cc(O)c(O)c(O)c3)c2)[C@@H](OC(=O)c2cc(O)c(O)c(OC(=O)c3cc(O)c(O)c(O)c3)c2)[C@@H]1OC(=O)c1cc(O)c(O)c(OC(=O)c2cc(O)c(O)c(O)c2)c1)c1cc(O)c(O)c(OC(=O)c2cc(O)c(O)c(O)c2)c1 [TANNIC ACID]	85.8
Cc1nnc2n1-c1ccc(Cl)cc1C(c1ccccc1Cl)=NC2 [TRIAZOLAM]	73
CN/C(=N/CCSCc1nc[nH]c1C)NC#N [CIMETIDINE]	98.4
CNC(=C[N+](=O)[O-])NCCSCc1ccc(CN(C)C)o1 [RANITIDINE]	96.3
COC(=O)C1=C(C)NC(C)=C(C(=O)OC)C1c1ccccc1[N+](=O)[O-] [NIFEDIPINE]	96.4

###

Species on record: Rattus norvegicus
Assay: Open TG-GATES - Regimen: Daily Repeat
Assay type: toxicity, organism-based, Sprague-Dawley
Design: regimen Daily Repeat, gender Male, age 6 weeks
Conditions: in vivo, po, 0 mg/kg, […], tissue Plasma, route gavage, dose level Control, time 28 day
# RALB annotations
Measurement Kind: RALB (g/dL)

Compound	Recorded Number
CCOc1ccc(NC(C)=O)cc1 [PHENACETIN]	2.9
CC(C)NNC(=O)c1ccncc1 [IPRONIAZID]	3.2
Brc1ccccc1 [BROMOBENZENE]	2.9
Nc1c2c(nc3ccccc13)CCCC2 [TACRINE]	3.2
NC1=NC(=O)C(c2ccccc2)O1 (stereo not drawn) [PEMOLINE]	2.8
COC(=O)C1=C(C)NC(C)=C(C(=O)OC)C1c1ccccc1[N+](=O)[O-] [NIFEDIPINE]	2.8
CNC(=C[N+](=O)[O-])NCCSCc1ccc(CN(C)C)o1 [RANITIDINE]	3.4
CN(C)CCC(c1ccc(Cl)cc1)c1ccccn1 (stereo not drawn) [CHLORPHENIRAMINE]	2.9
Cc1nnc2n1-c1ccc(Cl)cc1C(c1ccccc1Cl)=NC2 [TRIAZOLAM]	2.7
CN1C(=O)CCS(=O)(=O)C1c1ccc(Cl)cc1 (stereo not drawn) [CHLORMEZANONE]	2.8
CCCc1cc(=O)[nH]c(=S)[nH]1 [PROPYLTHIOURACIL]	4
O=C(OC[C@H]1O[C@@H](OC(=O)c2cc(O)c(O)c(OC(=O)c3cc(O)c(O)c(O)c3)c2)[C@H](OC(=O)c2cc(O)c(O)c(OC(=O)c3cc(O)c(O)c(O)c3)c2)[C@@H](OC(=O)c2cc(O)c(O)c(OC(=O)c3cc(O)c(O)c(O)c3)c2)[C@@H]1OC(=O)c1cc(O)c(O)c(OC(=O)c2cc(O)c(O)c(O)c2)c1)c1cc(O)c(O)c(OC(=O)c2cc(O)c(O)c(O)c2)c1 [TANNIC ACID]	3.9
CN/C(=N/CCSCc1nc[nH]c1C)NC#N [CIMETIDINE]	3.3

Cited source for all entries: ChEMBL document CHEMBL3885861
